The reported measurements were obtained from ChEMBL document CHEMBL4689842.

test system: HEK-293T; assay: Multiplex assay against HEK293T; type: toxicity, cell-based; conditions: human, 48 h, 1 µM, compound concentration 1 uM, replicate 1
METRIC NAME: Population Hoechst High Intensity Objects (%)

{"columns": ["COMPOUND", "NUMERIC VALUE"],
 "data": [
  ["COc1cccc([C@@H](C)NCCCc2ccccc2Cl)c1.Cl [TECALCET HYDROCHLORIDE]", 5],
  ["C=CC(=O)Nc1ccc2ncnc(Nc3ccc(OCc4cccc(F)c4)c(Cl)c3)c2c1.Cc1ccc(S(=O)(=O)O)cc1", 13],
  ["CC(C)(O)CNc1ncc(-c2ccnc(Nc3ccnc(Cl)c3)n2)c(CC2CC2)n1", 17],
  ["CN1CCN(c2ccc(OC(F)(F)F)c(Nc3ncc4c(n3)-c3c(c(C(N)=O)nn3CCO)CC4)c2)CC1", 20],
  ["Cc1[nH]c(/C=C2\\C(=O)Nc3ccc(S(=O)(=O)N(C)c4cccc(Cl)c4)cc32)c(C)c1C(=O)N1CCN(C)CC1", 19],
  ["CNc1nc(NCc2ccc(NS(C)(=O)=O)cc2Cl)cc(-c2ccccn2)n1", 8],
  ["Cc1cc(C)cc(-c2cnc3cc(Cl)c(-c4cccc(O)c4)cc3c2OCCCN)c1", 18],
  ["CN1CCC[C@@H]1CCO[C@](C)(c1ccccc1)c1ccc(Cl)cc1.O=C(O)/C=C/C(=O)O [CLEMASTINE FUMARATE]", 23]
]}
